Tested on: primary mouse cortical neurons
Construct: primary cortical neurons, DIV 10
Experiment: cells
Set-up: Protection from NMDA-induced (30 uM, 10 min) neuronal death; Hoechst nuclear morphology by automated microscopy
Conditions: Cortical neurone, 20 h, read-out: % inhibition, inhibition of NMDA-induced cell death (protection score), 30 min pre-treatment
Counter-ions that a name gives are not always drawn.
observed.property: inhibition at 10 µM (%)

INSERT INTO results (molecule, unit_of_measurement, endpoint_value) VALUES
  ('O=C1CCC[C@@H]2[C@H]3CCCN4CCC[C@@H](CN12)[C@@H]34 [Matrine ((+)-Matrine)]', '%', -4.08),
  ('C[N+](C)(C)CC(O)CC(=O)[O-] (racemic) [DL-Carnitine hydrochloride]', '%', 2.11),
  ('O=c1c(O)c(-c2cc(O)c(O)c(O)c2)oc2cc(O)cc(O)c12', '%', -1.08),
  ('O=C(N[C@H](CO)[C@H](O)c1ccc([N+](=O)[O-])cc1)C(Cl)Cl', '%', 0.272),
  ('COc1c(C)c2c(c(O)c1C/C=C(\C)CCC(=O)OCCN1CCOCC1)C(=O)OC2 [Mycophenolate mofetil (CellCept)]', '%', 4.41),
  ('COc1ccc(-c2coc3cc(O)ccc3c2=O)cc1', '%', -0.533),
  ('CO[C@@H]1[C@@H](OC(N)=O)[C@@H](O)[C@H](Oc2ccc3c(O)c(NC(=O)c4ccc(O)c(CC=C(C)C)c4)c(=O)oc3c2C)OC1(C)C [Novobiocin sodium (Albamycin)]', '%', -0.631),
  ('Cc1ccc(Nc2nccc(N(C)c3ccc4c(C)n(C)nc4c3)n2)cc1S(N)(=O)=O [Pazopanib HCl]', '%', -2.36),
  ('Nc1nc2c(ncn2COCCO)c(=O)[nH]1', '%', -1.44),
  ('CCCSc1ccc2[nH]c(NC(=O)OC)nc2c1', '%', 28.3),
  ('CC(=O)OCC(=O)[C@@]12OC(C)(C)O[C@@H]1C[C@H]1[C@@H]3C[C@H](F)C4=CC(=O)C=C[C@]4(C)[C@@]3(F)[C@@H](O)C[C@@]12C [Fluocinonide (Vanos)]', '%', -1.57),
  ('OC[C@H]1O[C@@H](Oc2cc(O)cc(C=Cc3ccc(O)cc3)c2)[C@H](O)[C@@H](O)[C@@H]1O', '%', 1.2),
  ('c1coc(CNc2ncnc3[nH]cnc23)c1', '%', -0.453),
  ('O=C(O)C1=C[C@@H](O)[C@@H](O)[C@H](O)C1 [Shikimic acid (Shikimate)]', '%', 0.278),
  ('CCCC(CCC)C(=O)O [Divalproex sodium]', '%', 3.49);

----------
# maps each entry to its inhibition at 10 µM
Tested on: primary mouse cortical neurons
Construct: primary cortical neurons, DIV 10
Test: cells
Set-up: Protection from NMDA-induced (30 uM, 10 min) neuronal death; Hoechst nuclear morphology by automated microscopy
Conditions: Cortical neurone, 20 h, read-out: % inhibition, inhibition of NMDA-induced cell death (protection score), 30 min pre-treatment
Where a name gives a salt, the structure may show the parent alone.
observed.property: inhibition at 10 µM

INSERT INTO results (compound, endpoint_value) VALUES
  ('Nc1nc2ccc(OC(F)(F)F)cc2s1 [Riluzole (Rilutek)]', '40.9%'),
  ('C#Cc1cccc(Nc2ncnc3cc(OCCOC)c(OCCOC)cc23)c1 [Erlotinib HCl]', '22.9%'),
  ('CC(C)(O)[C@H]1CC[C@@](C)([C@H]2[C@@H](O)C[C@@]3(C)[C@@H]4C[C@H](O[C@@H]5O[C@H](CO)[C@@H](O)[C@H](O)[C@H]5O)[C@H]5C(C)(C)[C@@H](O[C@@H]6OC[C@@H](O)[C@H](O)[C@H]6O)CC[C@@]56C[C@@]46CC[C@]23C)O1 [Astragaloside A]', '0.89%');

----------
Test system: primary mouse cortical neurons
Construct: primary cortical neurons, DIV 10
Experiment: cells
Design: Protection from NMDA-induced (30 uM, 10 min) neuronal death; Hoechst nuclear morphology by automated microscopy
Details: Cortical neurone, 20 h, read-out: % inhibition, inhibition of NMDA-induced cell death (protection score), 30 min pre-treatment
Where a name gives a salt, the structure may show the parent alone.
observed.property: inhibition at 10 µM (%)

INSERT INTO assay_data (compound, endpoint_value) VALUES
  ('CC(=O)OCC(=O)[C@@]12N=C(C)O[C@@H]1C[C@H]1[C@@H]3CCC4=CC(=O)C=C[C@]4(C)[C@H]3[C@@H](O)C[C@@]12C [Deflazacort (Calcort)]', -1.74),
  ('COc1ccc(-c2cc(=O)c3c(OC)c(OC)c(OC)c(OC)c3o2)cc1OC [Nobiletin (Hexamethoxyflavone)]', -0.471),
  ('CN(C)CCc1ccc(O)cc1 [Hordenine]', -0.889),
  ('COc1ccc(-c2nc3cc(C4=NNC(=O)CC4C)ccc3[nH]2)cc1 (centres unmarked) [Pimobendan (Vetmedin)]', -0.217),
  ('CNCCC(Oc1ccc(C(F)(F)F)cc1)c1ccccc1 (centres unmarked) [Fluoxetine HCl]', -11.1),
  ('NC12CC3CC(CC(C3)C1)C2 [Amantadine hydrochloride (Symmetrel)]', 1.41),
  ('OCc1ccccc1O[C@@H]1O[C@H](CO)[C@@H](O)[C@H](O)[C@H]1O [Salicin (Salicoside, Salicine)]', -2.7),
  ('C[C@@H]1[C@H](O)[C@@H](C)/C=C/C=C/CC/C=C/C=C/C=C/C=C/[C@H](O[C@@H]2O[C@H](C)[C@@H](O)[C@H](N)[C@@H]2O)C[C@@H]2O[C@](O)(C[C@@H](O)[C@H](O)CC[C@@H](O)C[C@@H](O)C[C@@H](O)CC(=O)O[C@H]1C)C[C@H](O)[C@H]2C(=O)O [Nystatin (Mycostatin)]', 4),
  ('COc1ccc(-c2coc3cc(O)cc(O)c3c2=O)cc1 [Biochanin A (4-Methylgenistein)]', 3),
  ('CN(C)CCCN1c2ccccc2Sc2ccc(Cl)cc21 [Chlorpromazine (Sonazine)]', -4.78),
  ('Nc1nc2c(ncn2[C@@H]2O[C@H](CO)[C@@H](O)[C@H]2O)c(=O)[nH]1 [Guanosine]', -1.96),
  ('O=C(c1ccccc1)c1ccc2n1CCC2C(=O)O (centres unmarked) [Ketorolac (Toradol)]', 37.4),
  ('CN(C)C(=O)Oc1ccc[n+](C)c1 [Pyridostigmine Bromide (Mestinon)]', 35.3),
  ('COc1ccc(C(CN(C)C)C2(O)CCCCC2)cc1 (centres unmarked) [Venlafaxine]', 22.6),
  ('OC(Cn1cncn1)(Cn1cncn1)c1ccc(F)cc1F [Fluconazole]', 6.24),
  ('COc1cc(CCC(C)=O)ccc1O [Vanillylacetone]', 7.76),
  ('C[C@H](N[C@@H](CCc1ccccc1)C(=O)O)C(=O)N1CCC[C@H]1C(=O)O [Enalaprilat dihydrate]', -4.34),
  ('Cc1nc(-c2ccc(OCC(C)C)c(C#N)c2)sc1C(=O)O [Febuxostat (Uloric)]', -0.186),
  ('Nc1nc(=O)n([C@@H]2CS[C@H](CO)O2)cc1F [Emtricitabine (Emtriva)]', 14.4),
  ('N=c1nc(N2CCCCC2)cc(N)n1O [Minoxidil]', -1.14),
  ('Cc1ccc(O)c([C@H](CCN(C(C)C)C(C)C)c2ccccc2)c1 [Tolterodine tartrate (Detrol LA)]', -2.31),
  ('CCCCCCCCCC(=O)N[C@@H](Cc1c[nH]c2ccccc12)C(=O)N[C@H](CC(N)=O)C(=O)N[C@@H](CC(=O)O)C(=O)N[C@@H]1C(=O)NCC(=O)N[C@@H](CCCN)C(=O)N[C@@H](CC(=O)O)C(=O)N[C@H](C)C(=O)N[C@@H](CC(=O)O)C(=O)NCC(=O)N[C@H](CO)C(=O)N[C@@H]([C@H](C)CC(=O)O)C(=O)N[C@@H](CC(=O)c2ccccc2N)C(=O)O[C@@H]1C [Daptomycin]', -3.03),
  ('COC(=O)[C@@H]1CC2=CC(=O)CC[C@]2(C)[C@@]23O[C@@H]2C[C@@]2(C)[C@@H](CC[C@@]24CCC(=O)O4)[C@H]13 [Eplerenone]', 6.59),
  ('CCc1cc(C(N)=S)ccn1 [Ethionamide]', 27.7),
  ('OC[C@H]1O[C@@H](Oc2ccc(O)cc2)[C@H](O)[C@@H](O)[C@@H]1O [Arbutin (Uva, p-Arbutin)]', -0.469),
  ('COc1cc2c(cc1Cc1cccc(Cl)c1F)c(=O)c(C(=O)O)cn2[C@H](CO)C(C)C [Elvitegravir (GS-9137)]', 89.3),
  ('C[C@]12C=CC(=O)C=C1CC[C@@H]1[C@@H]2[C@@H](O)C[C@@]2(C)[C@H]1CC[C@]2(O)C(=O)CO [Prednisolone (Hydroretrocortine)]', 4.33),
  ('c1cc2c(cc1[C@H]1OC[C@H]3[C@@H]1CO[C@@H]3c1ccc3c(c1)OCO3)OCO2 [Sesamin (Fagarol)]', 15.7),
  ('N[C@@H](CSCCCO)C(=O)O [Fudosteine]', 7.72);
